Overview of reported lowest effective oral dose (vaginal candidosis in rats) across a group of compounds:
Test system: Candida albicans
PROTOCOL_NOTES: Activity against vaginal candidosis in rats (lowest oral dose active at the 14th day after infection)
Assay type: in vivo, Female Wistar rats
Parameters: unit not given here
EXPERIMENTAL_CONTEXT: Table I; oral once a day for two days; active at 14th day after infection
// no unit string in output, number only

Nc1ccc(OC[C@H]2CO[C@](Cn3ccnc3)(c3ccc(Cl)cc3Cl)O2)cc1 (relative stereo)
5
CNC(=O)N1CCN(c2ccc(OC[C@H]3CO[C@](Cn4ccnc4)(c4ccc(Cl)cc4Cl)O3)cc2)CC1 (relative stereo)
2.5
COC(=O)N1CCN(c2ccc(OC[C@H]3CO[C@](Cn4ccnc4)(c4ccc(Cl)cc4Cl)O3)cc2)CC1 (relative stereo)
2.5

Now turn to the next compound.
Entry CNc1ccc(OC[C@H]2CO[C@](Cn3ccnc3)(c3ccc(Cl)cc3Cl)O2)cc1 (relative stereo) ; lowest effective oral dose (vaginal candidosis in rats) = 5

* * *

Overview of reported lowest effective oral dose (vaginal candidosis in rats) across a group of compounds:
Test system: Candida albicans
PROTOCOL_NOTES: Activity against vaginal candidosis in rats (lowest oral dose active at the 14th day after infection)
Format: in vivo, Female Wistar rats
Parameters: unit not given here
EXPERIMENTAL_CONTEXT: Table I; oral once a day for two days; active at 14th day after infection
// no unit string in output, number only

Clc1ccc([C@@]2(Cn3ccnc3)OC[C@H](COc3ccc(N4CCN(Cc5ccccc5)CC4)cc3)O2)c(Cl)c1 (relative stereo) [drawing 46]
2.5
CC(=O)N1CCN(c2ccc(OC[C@H]3CO[C@](Cn4ccnc4)(c4ccc(Cl)cc4Cl)O3)cc2)CC1 (relative stereo)
2.5
CCNC(=S)Nc1ccc(OC[C@H]2CO[C@](Cn3ccnc3)(c3ccc(Cl)cc3Cl)O2)cc1 (relative stereo)
5

Entry O=C(Nc1ccc(OC[C@H]2CO[C@](Cn3ccnc3)(c3ccc(Cl)cc3Cl)O2)cc1)c1ccc(F)cc1 (relative stereo) ; lowest effective oral dose (vaginal candidosis in rats) = 5

Entry CCOC(=O)N1CCN(c2ccc(OC[C@H]3CO[C@](Cn4ccnc4)(c4ccc(Cl)cc4Cl)O3)cc2)CC1 (relative stereo) [drawing 31] ; lowest effective oral dose (vaginal candidosis in rats) = 2.5

Entry CCCNC(=O)N1CCN(c2ccc(OC[C@H]3CO[C@](Cn4ccnc4)(c4ccc(Cl)cc4Cl)O3)cc2)CC1 (relative stereo) [dihydrate] ; lowest effective oral dose (vaginal candidosis in rats) = 2.5

* * *

Test system: Candida albicans
PROTOCOL_NOTES: Activity against vaginal candidosis in rats (lowest oral dose active at the 14th day after infection)
Type: in vivo, Female Wistar rats
Set-up: unit not given here
EXPERIMENTAL_CONTEXT: Table I; oral once a day for two days; active at 14th day after infection
MEASURED_QUANTITY: lowest effective oral dose (vaginal candidosis in rats)
// no unit string in output, number only

Before answering, review these 8 worked examples.
CC(=O)Nc1ccc(OC[C@H]2CO[C@](Cn3ccnc3)(c3ccc(Cl)cc3Cl)O2)cc1 (relative stereo)
5
CCNC(=O)Nc1ccc(OC[C@H]2CO[C@](Cn3ccnc3)(c3ccc(Cl)cc3Cl)O2)cc1 (relative stereo)
10
O=C(Nc1ccc(OC[C@H]2CO[C@](Cn3ccnc3)(c3ccc(Cl)cc3Cl)O2)cc1)c1ccc(Br)cc1 (relative stereo)
10
CCOC(=O)Nc1ccc(OC[C@H]2CO[C@](Cn3ccnc3)(c3ccc(Cl)cc3Cl)O2)cc1 (relative stereo)
5
CNC(=O)Nc1ccc(OC[C@H]2CO[C@](Cn3ccnc3)(c3ccc(Cl)cc3Cl)O2)cc1 (relative stereo)
10
NC(=S)Nc1ccc(OC[C@H]2CO[C@](Cn3ccnc3)(c3ccc(Cl)cc3Cl)O2)cc1 (relative stereo)
20
CN1CCN(c2ccc(OC[C@H]3CO[C@](Cn4ccnc4)(c4ccc(Cl)cc4Cl)O3)cc2)CC1 (relative stereo)
2.5
CCCN1CCN(c2ccc(OC[C@H]3CO[C@](Cn4ccnc4)(c4ccc(Cl)cc4Cl)O3)cc2)CC1 (relative stereo)
2.5

Reported Candida albicans lowest effective oral dose (vaginal candidosis in rats) for item O=CNc1ccc(OC[C@H]2CO[C@](Cn3ccnc3)(c3ccc(Cl)cc3Cl)O2)cc1 (relative stereo) was 2.5

Reported Candida albicans lowest effective oral dose (vaginal candidosis in rats) for item CCN1CCN(c2ccc(OC[C@H]3CO[C@](Cn4ccnc4)(c4ccc(Cl)cc4Cl)O3)cc2)CC1 (relative stereo) [drawing 37] was 1.25

Reported Candida albicans lowest effective oral dose (vaginal candidosis in rats) for item CS(=O)(=O)N1CCN(c2ccc(OC[C@H]3CO[C@](Cn4ccnc4)(c4ccc(Cl)cc4Cl)O3)cc2)CC1 (relative stereo) was 1.25

Reported Candida albicans lowest effective oral dose (vaginal candidosis in rats) for item CC(C)N1CCN(c2ccc(OC[C@H]3CO[C@](Cn4ccnc4)(c4ccc(Cl)cc4Cl)O3)cc2)CC1 (relative stereo) was 2.5

Reported Candida albicans lowest effective oral dose (vaginal candidosis in rats) for item COc1ccc(C(=O)Nc2ccc(OC[C@H]3CO[C@](Cn4ccnc4)(c4ccc(Cl)cc4Cl)O3)cc2)cc1 (relative stereo) was 40
